Would you kindly list relative viability for each of these compounds?
test system: NCI-H2170; experiment: relative viability (nuclei count vs DMSO), 5 days (fraction); higher = more cells survive; details: first compound 0.8 µM
Answers are plain numbers.

O=c1[nH]c2ccccc2n1C1CCN(CCCC(c2ccc(F)cc2)c2ccc(F)cc2)CC1 [Pimozide] + CS(=O)(=O)CCNCc1ccc(-c2ccc3ncnc(Nc4ccc(OCc5cccc(F)c5)c(Cl)c4)c3c2)o1 [Lapatinib] (partner 2 µM) | 0.276
O=c1[nH]c2ccccc2n1C1CCN(CCCC(c2ccc(F)cc2)c2ccc(F)cc2)CC1 [Pimozide] + O=C(CCCCCCC(=O)Nc1ccccc1)NO [Vorinostat] (partner 1 µM) | 0.808
O=c1[nH]c2ccccc2n1C1CCN(CCCC(c2ccc(F)cc2)c2ccc(F)cc2)CC1 [Pimozide] + CS(=O)(=O)N1CCN(Cc2cc3nc(-c4cccc5[nH]ncc45)nc(N4CCOCC4)c3s2)CC1 [Pictilisib] (partner 1 µM) | 0.299
Cc1cnc(-c2cnc(NCCNc3ccc(C#N)cn3)nc2-c2ccc(Cl)cc2Cl)[nH]1 + O=C(c1cc(Cc2n[nH]c(=O)c3ccccc23)ccc1F)N1CCN(C(=O)C2CC2)CC1 [Olaparib] (partner 8 µM) | 0.518

Problem: Quick check: relative viability of O=c1[nH]c2ccccc2n1C1CCN(CCCC(c2ccc(F)cc2)c2ccc(F)cc2)CC1 [Pimozide] + C[C@@H](Oc1cc(-c2cnn(C3CCNCC3)c2)cnc1N)c1c(Cl)ccc(F)c1Cl [Crizotinib] (partner 1 µM) ?
Solution: 1.06

---

test system: UMC-11; experiment: relative viability (nuclei count vs DMSO), 5 days (fraction); higher = more cells survive; conditions: first compound 0.5 µM
Would you kindly list relative viability for each of these molecules?
Numbers only.

As a guide, the following entries are already answered.
COc1cc2nccc(Oc3ccc(NC(=O)Nc4cc(C)on4)c(Cl)c3)c2cc1OC [Tivozanib] + CC(=O)Nc1cccc(-n2c(=O)n(C3CC3)c(=O)c3c(Nc4ccc(I)cc4F)n(C)c(=O)c(C)c32)c1 [Trametinib] (partner 0.02 µM) | 0.529
COc1cc2nccc(Oc3ccc(NC(=O)Nc4cc(C)on4)c(Cl)c3)c2cc1OC [Tivozanib] + COc1cc2c(Oc3ccc(NC(=O)C4(C(=O)Nc5ccc(F)cc5)CC4)cc3F)ccnc2cc1OCCCN1CCOCC1 [Foretinib] (partner 0.25 µM) | 1.01

Could you tell me relative viability for each of these molecules? They are listed below.
1. Nc1ccn([C@@H]2O[C@H](CO)[C@@H](O)[C@@H]2O)c(=O)n1 [Cytarabine] + O=C(CCCCCCC(=O)Nc1ccccc1)NO [Vorinostat] (partner 1 µM)
2. Nc1ccn([C@@H]2O[C@H](CO)[C@@H](O)[C@@H]2O)c(=O)n1 [Cytarabine] + N=C(N)NC(=N)NCCc1ccccc1 [Phenformin] (partner 250 µM)

Solution:
1. 0.183
2. 0.159

---

system: RERF-LC-KJ; assay: relative viability (nuclei count vs DMSO), 5 days (fraction); higher = more cells survive; settings: first compound 0.08 µM
Label 1 when relative viability is strictly below 0.9; at or above that, label 0.

O=c1[nH]c2ccccc2n1C1CCN(CCCC(c2ccc(F)cc2)c2ccc(F)cc2)CC1 [Pimozide] + COc1cccc2cc(-c3nc([C@H]4CC[C@H](C(=O)O)CC4)n4ncnc(N)c34)[nH]c12 [OSI-027] (partner 0.5 µM) | 1

Problem: Below 0.9 on relative viability? Entry Cc1cnc(-c2cnc(NCCNc3ccc(C#N)cn3)nc2-c2ccc(Cl)cc2Cl)[nH]1 + Cc1nc(NC(=O)N2CCC[C@H]2C(N)=O)sc1-c1ccnc(C(C)(C)C(F)(F)F)c1 [Alpelisib] (partner 2 µM)
Solution: 0

Problem: Below 0.9 on relative viability? Entry O=c1[nH]c2ccccc2n1C1CCN(CCCC(c2ccc(F)cc2)c2ccc(F)cc2)CC1 [Pimozide] + O=C(c1cc(Cc2n[nH]c(=O)c3ccccc23)ccc1F)N1CCN(C(=O)C2CC2)CC1 [Olaparib] (partner 8 µM)
Solution: 1

Problem: Below 0.9 on relative viability? Entry Cc1cnc(-c2cnc(NCCNc3ccc(C#N)cn3)nc2-c2ccc(Cl)cc2Cl)[nH]1 + Nc1ncn([C@H]2C[C@H](O)[C@@H](CO)O2)c(=O)n1 [Decitabine] (partner 2 µM)
Solution: 1

Problem: Below 0.9 on relative viability? Entry O=c1[nH]c2ccccc2n1C1CCN(CCCC(c2ccc(F)cc2)c2ccc(F)cc2)CC1 [Pimozide] + CC(=O)c1c(C)c2cnc(Nc3ccc(N4CCNCC4)cn3)nc2n(C2CCCC2)c1=O [Palbociclib] (partner 0.5 µM)
Solution: 0

Problem: Below 0.9 on relative viability? Entry Cc1cnc(-c2cnc(NCCNc3ccc(C#N)cn3)nc2-c2ccc(Cl)cc2Cl)[nH]1 + CS(=O)(=O)N1CCN(Cc2cc3nc(-c4cccc5[nH]ncc45)nc(N4CCOCC4)c3s2)CC1 [Pictilisib] (partner 1 µM)
Solution: 1
